tested on: SV2A; assay: Brain PET imaging with 1TC kinetic modeling; details: Temporal cortex
Reported metric: K1 (mL/cm^3 per min)
Expressed in mL/cm^3 per min, but write only the number.

Field: example entries. Status: answers known.
• [11CH3]c1cnccc1CN1C[C@@H](c2cc(F)c(F)c(F)c2)CC1=O [[^11C]UCB-J] = 0.66
• [11CH3]n1cncc1CN1C[C@@H](c2cc(F)cc(F)c2)CC1=O [[^11C]UCB-A] = 0.14
• Cc1cnccc1CN1C[C@@H](c2cc(F)cc([18F])c2)CC1=O [[^18F]SynVesT-1] = 0.74

Now for a further compound.
State, in one line, measured K1 of Cc1nccn1CN1C[C@@H](c2cc(F)cc([18F])c2)CC1=O [[^18F]SDM-16]
0.14

These measurements were taken from paper PMC8940841.
